test system: HOP-92 NSCLC; experiment: NCI tumour cell line growth inhibition, 48 h
METRIC: TGI

>>> print(df.to_string())
                                   compound  endpoint_value
0  c1ccc(CN2COc3c(ccc4c5c(ccc34)CN(Cc3ccccc3)CO5)C2)cc1        > 100 µM
1  O=S(=O)(NCCCNc1cc(-c2cn(-c3ccccc3)nc2-c2cccc(O)c2)ccn1)c1ccc(F)cc1         7.62 µM
2  C=C1C2CCC3(CCC4C5(C)CCCC4(C=[N+](CCO)C5)C3C2)C1O (stereo not given)        > 100 µM
3  COc1c(CC=C(C)C)c(O)c(C(CC(C)C)c2c(O)c(CC=C(C)C)c(O)c(C(C)=O)c2O)c(O)c1C(C)=O (stereo not given)        0.562 µM
4  COc1cccc(C(NC2=NCCC=N2)c2cc3c(cc2O)OCO3)c1O (stereo not given)         77.5 µM
5  Cc1ccc(S(=O)(=O)N2CC(CCN)c3ccccc32)cc1 (stereo not given)         52.7 µM
6           Nc1c(Cl)cc(-c2nc3ccccc3s2)cc1Cl        > 100 µM
7  O=C(c1ccco1)c1c(C(F)(F)F)n([O-])c2cc(F)c(F)cc2[n+]1=O         3.21 µM
8  O=C(Nc1ccc2[nH]c(C(=O)N3CC(CCl)c4ccc([N+](=O)[O-])cc43)cc2c1)c1cc2ccccc2o1 (stereo not given)       > 1100 µM
9  COC(=O)CCC(NC(=S)N/N=C(\C)c1cnccn1)C(=O)OC (stereo not given)        > 100 µM

###

test system: LOX IMVI melanoma; test: NCI tumour cell line growth inhibition, 48 h
Listing of recorded TGI by entry.
METRIC: TGI (µM)

COMPOUND	UNIT TAG	VALUE OPERATOR	ENDPOINT VALUE
O=C1C(Nc2cccc(O)c2)=C(Sc2ccccc2)C(=O)N1Cc1ccccc1	µM	=	39.4
CC(C)OC(=O)C1Cc2c([nH]c3ccccc23)C(c2ccccc2)N1 (stereo not given)	µM	>	100
CCOP(=O)(OCC)C(Cc1ccc(Cl)cc1)NS(=O)(=O)c1ccc(C)cc1 (stereo not given)	µM	>	100
CCn1ccnc1C(=O)/C=C/c1ccc(CC(=O)Nc2ccc(F)cc2)cc1	µM	=	2.83
CS(=O)(=O)C1(Br)S(=O)(=O)OCCOS1(=O)=O	µM	>	100
O=c1ccn(/C=C/C(O)C(O)CO)c(=O)[nH]1 (stereo not given)	µM	>	100
C[C@H]1C[C@H]2[C@@H]3CCC4=CC(=O)C=C[C@]4(C)C3=CC[C@]2(C)[C@@]1(O)C(=O)CO	µM	>	100
C[P+]1(c2ccccc2)CCCCC1	µM	>	100
CCOC(=O)/C=C\C(C#N)(C#N)N=Cc1ccsc1	µM	=	15.1
C=CC(=O)N[C@@H](/C=C/C(=O)OCC)Cc1ccc(-c2cc(Cl)cc(Cl)c2)cc1	µM	=	35.6
COc1cc(C(=O)/C=C/c2c(C(F)(F)F)nc3ccccn23)cc(OC)c1OC	µM	=	3.77
Cc1ccc(C2=Nc3ccccc3SC(c3cccc4c3OCO4)C2)cc1 (stereo not given)	µM	=	31.1
C[C@H](NC(=O)CNC(=O)CCCCCC(=O)NCC(=O)N[C@@H](C)C(=O)OCc1ccccc1)C(=O)OCc1ccccc1	µM	>	100
c1ccc(COC2C3COC(O3)C(OCc3ccccc3)C2OCc2ccccc2)cc1 (stereo not given)	µM	>	100
Clc1ccc([I+]c2ccc(Cl)cc2Cl)c(Cl)c1	µM	=	3.36
COc1cc(-c2cc(=O)c3ccccc3[nH]2)cc(OC)c1OC	µM	>	75
O=C1/C(=C/c2ccccc2[N+](=O)[O-])COc2ccc(O)cc21	µM	=	2.27
Cc1ccc(S(=O)(=O)NC(=O)OC23COCN2COC3)cc1	µM	>	100
CCC(=O)C(CCN1CCC(N2C(=O)C(CCC#N)c3ccccc32)CC1)(c1ccccc1)c1ccccc1 (stereo not given)	µM	=	27
CC(C)N(Cc1ccc(F)cc1)c1ccc(CO)c(Cl)c1	µM	=	21.6
CN(CCNC(=S)c1cn(C)c2c1ccc1ccccc12)CCNC(=S)c1cn(C)c2c1ccc1ccccc12	µM	>	100
Cc1cc2c(c(=O)o1)C1=S(SC(c3ccccc3)=C1)S2 (stereo not given)	µM	>	100
c1ccc2cc3c(cc2c1)OP1(Oc2cccc4cccnc24)(O3)Oc2cc3ccccc3cc2O1	µM	=	22.5
N#CCNC(=O)c1ccc(-c2ccnc(Nc3ccc(N4CCOCC4)cc3)n2)cc1	µM	>	44.9
O=C(Cc1ccccc1)C(c1ccccc1)S(=O)(=O)c1ccccc1 (stereo not given)	µM	>	100
O=[N+]([O-])c1cc(Cc2cc([N+](=O)[O-])c3cccnc3c2O)c(O)c2ncccc12	µM	>	66.2
O=c1cc(CNC2CC3CCC2C3)[nH]c(=O)[nH]1 (stereo not given)	µM	>	100
CC(C)=CC(=O)OC1C2C(C)=CC(O)C(O)C2(C)C2C3(O)OCC24C(CC(=O)OC14)C(C)C3O (stereo not given)	µM	=	0.325
O=C(Nc1nc2ncn(CCO)c2c(=O)[nH]1)c1ccccc1	µM	>	100
Cc1ccc(S(=O)(=O)N2CC(CCN)c3ccccc32)cc1 (stereo not given)	µM	=	13.5
COc1ccc(COc2cc3oc(=O)c4cc(C(C)O)ccc4c3cc2OC)cc1 (stereo not given)	µM	>	100
O=C(c1c(O)cc(O)cc1O)C1Cc2ccccc21 (stereo not given)	µM	>	100
C=C[C@]1(O[Si](C)(C)C)C[C@@]2(C(=O)OCC)C(O)C(=O)N3CCc4cc(OC)c(OC)cc4[C@]312 (stereo not given in full)	µM	>	100
O=[N+]([O-])C(=C/c1cccc2ccccc12)/C(=C\c1cccc2ccccc12)[N+](=O)[O-]	µM	=	3.06
COc1cc2c(cc1NC(=O)C(Cl)Cl)-c1ccc(NC(=O)C(Cl)Cl)cc1C2	µM	=	18.1
CC(=O)N(CC(=O)C(=O)NNc1ccoc1)c1ccc(Cl)cc1	µM	>	100
C=C1C=CC2(Br)OC3CC(C)(Cl)C(Br)CC13C2(C)C (stereo not given)	µM	=	33.8
C=C1C2CCC3(CCC4C5(C)CCCC4(C=[N+](CCO)C5)C3C2)C1O (stereo not given)	µM	>	100
C=CCN(CC=C)C(=O)[C@H](CC)[C@@H]1CC[C@@H](C)[C@@H]([C@H](C)[C@@H](O)[C@@H](C)C(=O)[C@H](CC)C2O[C@]3(C=C[C@@H](O)[C@]4(CC[C@@](C)([C@H]5CC[C@](O)(CC)[C@H](C)O5)O4)O3)[C@H](C)C[C@@H]2C)O1 (stereo not given in full)	µM	=	3.22
N#Cc1cccc(Nc2ncc(-c3ccccc3)o2)c1	µM	>	25

###

test system: SF-268 CNS; experiment: NCI tumour cell line growth inhibition, 48 h
METRIC: TGI

>>> df
                                    molecule  endpoint_value
 0  Nc1nc2ncn(CC(O)CO)c2c(=O)[nH]1 (stereo unspecified)        > 100 µM
 1  C#CCNC(=O)NC(CCCCNC(=O)OCc1ccccc1)C(=O)OCc1ccccc1 (stereo unspecified)        > 100 µM
 2  C[C@H]1CN(C2COC2)CCN1c1ccc(Nc2cc(-c3ccnc(N4CCn5c(cc6c5CC(C)(C)C6)C4=O)c3CO)cn(C)c2=O)nc1        > 100 µM
 3                   O=c1ccc2ccccc2c2ccccc12         6.19 µM
 4            Cc1nc(N(C(C)C)C(C)C)c(C(C)C)o1        > 100 µM
 5            CN1C(=NCCO)NS(=O)(=O)c2ccccc21        > 100 µM
 6  N#C/C(=C\c1cc2ccc(N3CCC3)cc2oc1=O)C(=O)N(CC(=O)O)CC(=O)O        > 100 µM
 7  CC1CCN(CCOc2ccc(CNc3ccc4nc(CCC5CCCCC5)[nH]c4c3)cc2)CC1         3.44 µM
 8         CC(N)CC(=O)O (stereo unspecified)       > 5000 µM
 9  CCC(C)N1CN(c2ccccc2)C2(CCN(CCCSc3ccc(F)cc3)CC2)C1=O (stereo unspecified)         23.7 µM
10  C=CCNC(=O)CN(CC(=O)O)C1CCCCC1N(CC(=O)O)CC(=O)O (stereo unspecified)        > 100 µM

###

system: SF-268 CNS; assay: NCI tumour cell line growth inhibition, 48 h
Listing of recorded TGI by entry.
METRIC: TGI (µM)

>>> df
                                    molecule  value_operator  endpoint_value
 0  CCOP(=O)(OCC)C(Cc1ccc(Cl)cc1)NS(=O)(=O)c1ccc(C)cc1 (stereo unspecified)               >             100
 1  O=C1/C(=C/c2ccccc2[N+](=O)[O-])COc2ccc(O)cc21               =            7.97
 2  O=C(NCCCCCCCN1CCCCCCC1)C(C1CCCCC1)C1CCCCC1               =            32.5
 3  c1ccc(COC2C3COC(O3)C(OCc3ccccc3)C2OCc2ccccc2)cc1 (stereo unspecified)               >             100
 4  COc1cc2c(cc1NC(=O)C(Cl)Cl)-c1ccc(NC(=O)C(Cl)Cl)cc1C2               =            1.94
 5  CC1CC(N2CCOCC2)=Nc2ccccc2N1Cc1ccccc1 (stereo unspecified)               >             100
 6  c1cc(CN2CCNCCNCCNCC2)cc(CN2CCNCCNCCNCC2)c1               >             100
 7            O=C(O)CC12CC3CC(CC(O)(C3)C1)C2               =            82.7
 8                    C[P+]1(c2ccccc2)CCCCC1               >             100
 9  COc1ccc2c(c1)C(=O)c1c-2c(=O)n(CCCN(C)C)c2cc(OC)c(OC)cc12               =            15.2
10      CC(C)N(Cc1ccc(F)cc1)c1ccc(CO)c(Cl)c1               =            26.4
